Assay: Semi-thermodynamic solubility
Assay type: physicochemical
Settings: summary sheet
Experimental: In vitro ADME-T assays were performed by Cyprotex (Cyprotex Discovery, Cheshire, UK). […] The solution was agitated at ambient temperature overnight. The solutions were then centrifuged for 30 min at 3000 rpm at RT. The supernatant was removed and centrifuged for a further 30 min under the same conditions. […] The solubility of the shortlisted hits was calculated from a linear or quadratic fit of the standard curve.
quantity_measured: Solubility (class in words)

Examples with their reported Solubility (class in words) follow.
query: Recorded Solubility (class in words) for O=[N+]([O-])c1c(Cl)cc(O)c2c1C1C=CCC1C(c1ccc(Cl)cc1)N2 (stereo not shown) , please?
result: Sparingly

query: Consider the molecule shown here: Oc1cc(Cl)cc2c1NC(c1ccccc1)C1CC=CC21 (stereo not shown) What is its recorded Solubility (class in words)?
result: Sligthly

query: State the recorded Solubility (class in words) for this entry: Cc1[nH]nc(-c2ccc(O)c(C)c2O)c1-c1nc2ccccc2s1
result: Freely

query: Query (molecule): CC1(C)Cc2cccc(OCC(=O)Nc3nc4ccccc4s3)c2O1 ; field requested: Solubility (class in words)
result: Sligthly

query: I'd like to know its Solubility (class in words). The molecule in question is O=C(O)c1c(Cl)cc(O)c2c1C1C=CCC1C(c1ccc(Cl)cc1)N2 (stereo not shown)
result: Freely

Next:
query: // query Solubility (class in words) value for entry COc1ncc(C(C)NC2CC(C)(C)NC(C)(C)C2)cc1Cl (stereo not shown)
result: Freely

query: What does the data say about its Solubility (class in words)? Entry: N#Cc1c(Cl)cc(O)c2c1C1C=CCC1C(c1ccc(Cl)cc1)N2 (stereo not shown)
result: Sparingly

query: Need Solubility (class in words), item CC(C)C[C@@H](CO)NCc1cc(O)c2cc(F)ccc2n1
result: Freely

query: Fill blank: measured Solubility (class in words) of the molecule O=[N+]([O-])c1c(Cl)cc(O)c2c1C1C=CCC1C(c1ccc(Cl)cc1Cl)N2 (stereo not shown) is ____.
result: Freely

* * *

Test: Semi-thermodynamic solubility
Type: physicochemical
Conditions: PBS, aqueous buffer, thermodynamic from solid, Room Temp; Overnight; LC-MSMS; read-out: Solubility Replicate 4
Below, each of the compounds is paired with its reported solubility value.
Supply the numeric figure in µM, leaving out any unit text.

A selection of reference data follows.
query: May I ask what solubility has been recorded for COC(=O)C1=C(C)NC(C)=C(C(=O)OCCN(C)Cc2ccccc2)C1c1cccc([N+](=O)[O-])c1 (stereo not shown) [nicardipine, reference compound] ?
result: 31.2

query: Sample CC1(C)Cc2cccc(OCC(=O)Nc3nc4ccccc4s3)c2O1 — what was its solubility?
result: 1.4

***
query: Dear colleague, I am looking for the recorded solubility of the following compound: N#Cc1c(Cl)cc(O)c2c1C1C=CCC1C(c1ccc(Cl)cc1)N2 (stereo not shown)
result: 30.3

query: Entry Oc1cc(Cl)cc2c1NC(c1ccccc1)C1CC=CC21 (stereo not shown) : reported solubility = ?
result: 1.79

* * *

Test system: HepG2 human hepatocellular carcinoma cells
Test: Cell viability (cytotoxicity, MTT) using HepG2
Format: cell-based
Conditions: 72 h, summary sheet
quantity_measured: MTT (MEC) Minimum effective concentration (µM)
# number only, unit µM dropped from output

query: GET /values?readout=MTT (MEC) Minimum effective concentration&system=HepG2 human hepatocellular carcinoma cells&item= COc1ncc(C(C)NC2CC(C)(C)NC(C)(C)C2)cc1Cl (stereo not shown) [Compound 3.3]
result: 75.8

query: HepG2 human hepatocellular carcinoma cells / MTT (MEC) Minimum effective concentration / O=[N+]([O-])c1c(Cl)cc(O)c2c1C1C=CCC1C(c1ccc(Cl)cc1Cl)N2 (stereo not shown) [Compound 8] : value?
result: 6.79

query: Find MTT (MEC) Minimum effective concentration (HepG2 human hepatocellular carcinoma cells) for the entry CC1(C)Cc2cccc(OCC(=O)Nc3nc4ccccc4s3)c2O1 [Compound E25]
result: 42.6

More entries:
query: Request - read-out MTT (MEC) Minimum effective concentration | tested on HepG2 human hepatocellular carcinoma cells | compound Cc1[nH]nc(-c2ccc(O)c(C)c2O)c1-c1nc2ccccc2s1 [Compound E12]
result: 15.6

query: Recall the recorded MTT (MEC) Minimum effective concentration for O=[N+]([O-])c1c(Cl)cc(O)c2c1C1C=CCC1C(c1ccc(Cl)cc1)N2 (stereo not shown) [Compound 7] with HepG2 human hepatocellular carcinoma cells and state it.
result: 4.38

query: Record Oc1cc(Cl)cc2c1NC(c1ccc(Cl)cc1)C1CC=CC21 (stereo not shown) [Compound 12] : what is its MTT (MEC) Minimum effective concentration with HepG2 human hepatocellular carcinoma cells?
result: 9.85

query: # get_value(readout= MTT (MEC) Minimum effective concentration, system= HepG2 human hepatocellular carcinoma cells) for Oc1cc(Cl)cc2c1NC(c1ccccc1)C1CC=CC21 (stereo not shown) [Compound 11]
result: 14.2

query: What reported MTT (MEC) Minimum effective concentration corresponds to N#Cc1c(Cl)cc(O)c2c1C1C=CCC1C(c1ccc(Cl)cc1)N2 (stereo not shown) [Compound 14] on HepG2 human hepatocellular carcinoma cells?
result: 3.93

* * *

# reported bioavailability; entries follow
Experiment: In vivo bioavailability / PK after 1 mg/kg IV or 10 mg/kg PO
Parameters: species or system Male ICR mice
Settings: male, ICR, mouse, plasma; 10 mg/kg, PO
Give the number; % is assumed, so skip it.

query: What value of measured bioavailability is listed for O=[N+]([O-])c1c(Cl)cc(O)c2c1C1C=CCC1C(c1ccc(Cl)cc1)N2 (centres unmarked) ?
result: 85

Others:
query: Dear colleague, I am looking for the recorded bioavailability of the following molecule: Cc1[nH]nc(-c2ccc(O)c(C)c2O)c1-c1nc2ccccc2s1
result: 3

* * *

Assay: In vivo bioavailability / PK after 1 mg/kg IV or 10 mg/kg PO
Parameters: species or system Male ICR mice
Conditions: male, ICR, mouse, plasma, iv, 1 mg/kg, mice; 1 mg/kg IV; read-out: AUClast after IV administration
quantity_measured: AUC(0-t)
Dear colleague, please send the value followed by its unit.

query: Look up AUC(0-t): Cc1[nH]nc(-c2ccc(O)c(C)c2O)c1-c1nc2ccccc2s1
result: 85 ng·h/mL

query: Param item = CC(C)C[C@@H](CO)NCc1cc(O)c2cc(F)ccc2n1 ; retrieve measured AUC(0-t).
result: 413 ng·h/mL

Please examine the following record next.
query: Item O=[N+]([O-])c1c(Cl)cc(O)c2c1C1C=CCC1C(c1ccc(Cl)cc1)N2 (stereo not drawn) has what recorded AUC(0-t)?
result: 398 ng·h/mL

* * *

Assay: CaCo-2 permeability (bi-directional)
Settings: human, Caco-2, pH 7.4, Mean % Recovery B2A, HBSS/HBSS; pH 7.4/7.4
quantity_measured: recovery at 120 min, 10 µM
State the value with its unit after it.

These recorded examples may help you get a feel for the data.
query: Sample COc1ncc(C(C)NC2CC(C)(C)NC(C)(C)C2)cc1Cl (stereo not shown) — what was its recovery at 120 min, 10 µM?
result: 104%

query: Which recovery at 120 min, 10 µM reading was recorded for the compound Oc1cc(Cl)cc2c1NC(c1ccc(Cl)cc1)C1CC=CC21 (stereo not shown) ?
result: 14.4%

query: If you can, please state the reported recovery at 120 min, 10 µM value of N#Cc1c(Cl)cc(O)c2c1C1C=CCC1C(c1ccc(Cl)cc1)N2 (stereo not shown) .
result: 50.7%

***
query: Form field: reported recovery at 120 min, 10 µM of O=[N+]([O-])c1c(Cl)cc(O)c2c1C1C=CCC1C(c1ccc(Cl)cc1Cl)N2 (stereo not shown)
result: 33.3%

query: Data request, read-out recovery at 120 min, 10 µM, for O=[N+]([O-])c1c(Cl)cc(O)c2c1C1C=CCC1C(c1ccc(Cl)cc1)N2 (stereo not shown)
result: 37.8%

query: I would be grateful if you could share the reported recovery at 120 min, 10 µM for CC(C)C[C@@H](CO)NCc1cc(O)c2cc(F)ccc2n1 .
result: 73.4%

query: Please report the recorded recovery at 120 min, 10 µM for CC1(C)Cc2cccc(OCC(=O)Nc3nc4ccccc4s3)c2O1 .
result: 50.6%

query: Query (compound): Oc1cc(Cl)cc2c1NC(c1ccccc1)C1CC=CC21 (stereo not shown) ; field requested: recovery at 120 min, 10 µM
result: 8.82%

query: I am curious: what recovery at 120 min, 10 µM value has been reported for O=C(O)c1c(Cl)cc(O)c2c1C1C=CCC1C(c1ccc(Cl)cc1)N2 (stereo not shown) ?
result: 85%

query: If you can, please state the reported recovery at 120 min, 10 µM value of Cc1[nH]nc(-c2ccc(O)c(C)c2O)c1-c1nc2ccccc2s1 .
result: 65.6%

* * *

Listing: MEC of selected molecules
System: HepG2 human hepatocellular carcinoma cells
Assay: Cell viability (cytotoxicity, MTT) using HepG2
Format: cell-based
Conditions: 72h, 3 replicas, NR = No response (Summary sheet)
All answers are understood in µM, so give the number only.

Guide cases for MEC, answers given:
query: What is its MEC for HepG2 human hepatocellular carcinoma cells? Entry: Cc1[nH]nc(-c2ccc(O)c(C)c2O)c1-c1nc2ccccc2s1 [Compound E12]
result: 15.6

query: Recall the recorded MEC for N#Cc1c(Cl)cc(O)c2c1C1C=CCC1C(c1ccc(Cl)cc1)N2 (stereo not shown) [Compound 14] with HepG2 human hepatocellular carcinoma cells and state it.
result: 3.93

query: Give MEC (HepG2 human hepatocellular carcinoma cells) of the following molecule: Oc1cc(Cl)cc2c1NC(c1ccc(Cl)cc1)C1CC=CC21 (stereo not shown) [Compound 12]
result: 9.85

// next entry
query: Give MEC (HepG2 human hepatocellular carcinoma cells) of the following molecule: COc1ncc(C(C)NC2CC(C)(C)NC(C)(C)C2)cc1Cl (stereo not shown) [Compound 3.3]
result: 75.8
